Test: Pharmacokinetics of mPEG-SC20k-HM-3 and HM-3 in rats (plasma concentration by ELISA)
Settings: both, SD, rat, plasma, iv, MRT0-∞, SD rats
Where a SMILES comes first, the peptide text is derived from it.
measuredParameter: MRT inf
Returns: string containing the number followed by the unit.

The compound listed as CC[C@H](C)[C@H](N)C(=O)N[C@H](C(=O)N[C@@H](CCCNC(=N)N)C(=O)N[C@@H](CCCNC(=N)N)C(=O)N[C@@H](C)C(=O)N[C@@H](CC(=O)O)C(=O)N[C@@H](CCCNC(=N)N)C(=O)N[C@@H](C)C(=O)N[C@@H](C)C(=O)N[C@H](C(=O)N1CCC[C@H]1C(=O)NCC(=O)NCC(=O)NCC(=O)NCC(=O)N[C@@H](CCCNC(=N)N)C(=O)NCC(=O)N[C@@H](CC(=O)O)C(=O)O)C(C)C)C(C)C [HM-3] (H-IVRRADRAAVPGGGGRGD-OH; N-terminus assumed) shows MRT inf equal to 2.16 min
